The following molecules were reported with log10(IC50) values on Cyclin-dependent kinase 1 (Homo sapiens, UniProt P06493) in different studies.
recorded_endpoint: log10(IC50) (log10 of the value in nM)

COc1ccccc1Nc1nc(NCCO)nc2c1ncn2C(C)C ... 3.95
CCCC(=O)Nc1n[nH]c2cc(Cl)c(-c3ccccc3)cc12 ... 2.00
COCCNS(=O)(=O)c1ccc(Nc2ncc(-c3cnc4cccnn34)cn2)cc1 ... 1.60
CC(C)(O)c1ccc(-c2nc(Nc3ccc(CCO)cc3)ncc2C#N)cc1 ... 3.43
Brc1cnc(Nc2ccc(Oc3cccnc3)cc2)nc1Nc1ccc2nc[nH]c2c1 ... 2.39
CC(C)(N)c1ccc(-c2nc(Nc3ccc(CCN4CCOCC4)cc3)ncc2Cl)cc1 ... 3.44
CC(C)n1cnc2c(Nc3cccc(Cl)c3)nc(N[C@@H](CO)Cc3ccccc3)nc21 ... 2.70
CC(C)[C@H](CO)Nc1nc(Nc2ccc(F)c(Cl)c2)c2ncn(C(C)C)c2n1 ... 2.56
CC(C)n1cnc2c(Nc3cccc(Cl)c3)nc(N[C@H](CO)CC3CCCCC3)nc21 ... 3.70
NS(=O)(=O)c1ccc(NN=C2C(=O)Nc3ccc(S(N)(=O)=O)cc32)cc1 ... 2.23
COc1ccc(CNc2nc(N3CCN(CCO)CC3)nc3c2ncn3C(C)C)cc1 ... 3.85
Fc1cnc(Nc2ccc3nc[nH]c3c2)nc1Nc1ccc2nc[nH]c2c1 ... 2.63
